Please find below pIC50 data on USP19 (Homo sapiens (Human)) compiled from the literature.
pIC50: −log10 of the molar value.

Solved cases below.
- C[C@H](CC(=O)N1CCC(O)(Cn2cc(Br)c(-c3ccccc3)cc2=O)CC1)c1ccccc1: 3.60 to 4.30
- C[C@H](CC1CCCCC1)C(=O)N1CCC(O)(CN2CCN(S(C)(=O)=O)CC2=O)C2(CCCC2)C1 (some centres unmarked): 5.30 to 6.30
- CC1(C)CN(C(=O)N2CCNC[C@H]2c2ccccc2)CC[C@@]1(O)Cn1ccc(-c2ccccc2)cc1=O: > 6.30
- C[C@H](CC1CC1)C(=O)N1CCC(O)(Cn2cc(C(=O)N(C)C)c(-c3ccccc3)cc2=O)C(C)(C)C1 (some centres unmarked): 4.30 to 5.30

Request: Which pIC50 reading was recorded for the molecule C[C@H](CC(=O)N1CCC(O)(Cn2cnc(-c3ccccc3)cc2=O)C(C)(C)C1)c1ccccc1 (mixture of isomers) ?
Result: 5.30 to 6.30

Request: Find the recorded pIC50 belonging to "C[C@H](CC(=O)N1CCC(O)(Cn2cnc(-c3ccsc3)cc2=O)CC1)c1ccccc1" and report it.
Result: 4.30 to 5.30

Request: Reported pIC50 for "O=C(c1cn(C[C@]2(O)CCN(C(=O)[C@H](CO)CC(F)(F)F)CC23CCCC3)c(=O)cc1-c1ccccc1)N1CCOCC1" : what is it?
Result: > 6.30

Request: Report pIC50 for "O=C(N1CC[C@@](O)(Cn2cnc(-c3cccc(F)c3)cc2=O)C2(CCCC2)C1)N1CCNC[C@H]1c1ccccc1" please.
Result: > 6.30

Request: // pIC50 lookup, key: "Cc1cccc(-c2cc(=O)n(C[C@]3(O)CCN(C(=O)N4CCNC[C@H]4c4cc(F)ccc4F)CC34CCCC4)cn2)c1"
Result: > 6.30

Request: Bench note: what pIC50 did "C[C@H](CC(F)(F)F)C(=O)N1CC[C@@](O)(Cn2cc(C(=O)N(C)C)c(-c3ccccc3)cc2=O)C2(CCCC2)C1" show?
Result: > 6.30

Request: pIC50 for CC(n1cnc(-c2ccccc2)cc1=O)C1(O)CCN(C(=O)[C@H](C)CC2CCCCC2)CC1 (some centres unmarked) ?
Result: 5.30 to 6.30

Request: What pIC50 value was documented for this molecule, "C[C@H](CC(=O)N1CCC(O)(Cn2cc(C(=O)NCCO)c(-c3ccccc3)cc2=O)CC1)c1ccccc1" ?
Result: 4.30 to 5.30

Request: What does the record list as pIC50 for "C[C@H](CC(=O)N1CCC(O)(Cn2cc(C(=O)N3CCNCC3)c(-c3ccccc3)cc2=O)CC1)c1ccccc1" ?
Result: 5.30 to 6.30

Request: pIC50 for CN(C(=O)N1CCC(O)(Cn2cnc(-c3ccccc3)cc2=O)C2(CCCC2)C1)C1CCC1 (centres unmarked) ?
Result: 4.30 to 5.30

###

Assembled from different publications: IC50 for USP19 (Homo sapiens (Human), UniProt O94966).

• O=C(N1CC[C@@](O)(Cn2cnc(-c3ccccc3)cc2=O)C2(CCCC2)C1)N1CCOC[C@@H]1c1ccccc1 = 50 to 250 µM
• CC(C)N(C)C(=O)c1cn(CC2(O)CCN(C(=O)C3(C)CCCC3)CC2)c(=O)cc1-c1ccccc1F = 5 to 50 µM
• C[C@H](CC1CCCCC1)C(=O)N1CCC(O)(Cn2cnc3ccncc3c2=O)C2(CCCC2)C1 (stereo partly shown) = 0.5 to 5 µM
• O=C1CN(C(=O)c2ccccc2)CCN1CC1(O)CCN(C(=O)NCc2ccccc2)CC12CCCC2 (stereo not shown) = 5 to 50 µM
• C[C@H](CC1CCCCC1)C(=O)N1CC[C@](O)(Cn2cc(N=S(C)(C)=O)c(-c3ccccc3F)cc2=O)C(C)(C)C1 = 50 to 250 µM

Request: Request body: readout IC50, system USP19 (Homo sapiens (Human), UniProt O94966), query CN(C)C(=O)c1cn(CC2(O)CCN(C(=O)C3CC3)CC23CCCC3)c(=O)cc1-c1ccccc1 (stereo not shown) . Return the value.
Result: 50 to 250 µM

Request: Short answer please: IC50, USP19 (Homo sapiens (Human), UniProt O94966), entry C[C@@H]1CNCCN1C(=O)N1CCC(O)(Cn2cnc(-c3ccccc3)cc2=O)C2(CCCC2)C1 (stereo partly shown)
Result: 50 to 250 µM

###

pIC50: −log10 of the molar value.
System: USP19 (Homo sapiens (Human)) | Read-out: pIC50 | Origin: multiple publications

Request: Reported pIC50 for USP19 (Homo sapiens (Human)), given CN(C)C(=O)c1cn(CC2(O)CCN(C(=O)C(O)Cc3ccccc3)CC23CCCC3)c(=O)cc1-c1ccccc1 (stereo not shown) ?
Result: 5.30 to 6.30

Request: Recall the recorded pIC50 for CN(C)C(=O)c1cn(CC2(O)CCN(C(=O)C34CCC(CC3)C4)CC23CCCC3)c(=O)cc1-c1ccccc1 (stereo not shown) with USP19 (Homo sapiens (Human)) and state it.
Result: 3.60 to 4.30

Request: Fill in the recorded pIC50 for this compound, with USP19 (Homo sapiens (Human)) as test system: C[C@H](CC(F)(F)F)C(=O)N1CCC(O)(CN2C(=O)COCC23CC3)C2(CCCC2)C1 (stereo partly shown)
Result: 3.60 to 4.30

Request: pIC50, test system USP19 (Homo sapiens (Human)), entry Cc1nc2ccccc2c(=O)n1CC1(O)CCN(C(=O)[C@H](C)CC2CCCCC2)CC12CCCC2 (stereo partly shown)
Result: 5.30 to 6.30

Request: // map "CC1(C)CN(C(=O)N2CCNC[C@H]2c2ccccc2)CC[C@@]1(O)Cn1cnc(-c2ccccc2)cc1=O" to recorded pIC50 (system: USP19 (Homo sapiens (Human)))
Result: > 6.30

Request: # value lookup — system USP19 (Homo sapiens (Human)), readout pIC50, item "C[C@H](CC1CCCCC1)C(=O)N1CC[C@@](O)(Cn2cc(C(=O)N3CCNCC3)c(C3CC3)cc2=O)C2(CCCC2)C1"
Result: > 6.30

Request: Form entry - test system: USP19 (Homo sapiens (Human)); read-out: pIC50; compound: CN(C)C(=O)c1cn(CC2(O)CCN(C(=O)C3CCC(C(F)(F)F)C3)CC23CCCC3)c(=O)cc1-c1ccccc1 (stereo not shown)
Result: 5.30 to 6.30

###

Record set: pIC50 | USP19 (Homo sapiens (Human)) | literature, multiple sources.
pIC50: −log10 of the molar value.

- C[C@H](CC1CCCCC1)C(=O)N1CC[C@@](O)(Cn2cc(C(=O)O)c(-c3ccccc3)cc2=O)C2(CCCC2)C1: > 6.30
- CSc1ncc2c(=O)n(CC3(O)CCN(C(=O)[C@H](C)CC4CCCCC4)CC34CCCC4)ccc2n1 (stereo partly shown): > 6.30
- CN(C)C(=O)c1cn(CC2(O)CCN(C(=O)C3CC(C(F)(F)F)C3)CC23CCCC3)c(=O)cc1-c1ccccc1 (stereo not shown): 4.30 to 5.30
- C[C@H](CC1CCCCC1)C(=O)N1CCC(O)(Cn2cnc3sccc3c2=O)C2(CCCC2)C1 (stereo partly shown): 5.30 to 6.30
- O=C1COCCN1CC1(O)CCN(C(=O)N2CCNC[C@H]2c2ccccc2)CC12CCCC2 (stereo partly shown): 5.30 to 6.30
- C[C@H](CC1CCCCC1)C(=O)N1CCC(O)(Cn2cnc(-c3ccccc3)cc2=O)C(C)(C)C1 (mixture of isomers): > 6.30

# evaluate next
Request: Consider the molecule "C[C@H](CC(=O)N1CCC(O)(Cn2ncc(-c3ccccc3)cc2=O)CC1)c1ccccc1" and give its measured pIC50.
Result: 3.60 to 4.30

###

Here's a roundup of IC50 values tested on USP19 (Homo sapiens (Human), UniProt O94966), taken from various published works.
Sequence (O94966 whole entry): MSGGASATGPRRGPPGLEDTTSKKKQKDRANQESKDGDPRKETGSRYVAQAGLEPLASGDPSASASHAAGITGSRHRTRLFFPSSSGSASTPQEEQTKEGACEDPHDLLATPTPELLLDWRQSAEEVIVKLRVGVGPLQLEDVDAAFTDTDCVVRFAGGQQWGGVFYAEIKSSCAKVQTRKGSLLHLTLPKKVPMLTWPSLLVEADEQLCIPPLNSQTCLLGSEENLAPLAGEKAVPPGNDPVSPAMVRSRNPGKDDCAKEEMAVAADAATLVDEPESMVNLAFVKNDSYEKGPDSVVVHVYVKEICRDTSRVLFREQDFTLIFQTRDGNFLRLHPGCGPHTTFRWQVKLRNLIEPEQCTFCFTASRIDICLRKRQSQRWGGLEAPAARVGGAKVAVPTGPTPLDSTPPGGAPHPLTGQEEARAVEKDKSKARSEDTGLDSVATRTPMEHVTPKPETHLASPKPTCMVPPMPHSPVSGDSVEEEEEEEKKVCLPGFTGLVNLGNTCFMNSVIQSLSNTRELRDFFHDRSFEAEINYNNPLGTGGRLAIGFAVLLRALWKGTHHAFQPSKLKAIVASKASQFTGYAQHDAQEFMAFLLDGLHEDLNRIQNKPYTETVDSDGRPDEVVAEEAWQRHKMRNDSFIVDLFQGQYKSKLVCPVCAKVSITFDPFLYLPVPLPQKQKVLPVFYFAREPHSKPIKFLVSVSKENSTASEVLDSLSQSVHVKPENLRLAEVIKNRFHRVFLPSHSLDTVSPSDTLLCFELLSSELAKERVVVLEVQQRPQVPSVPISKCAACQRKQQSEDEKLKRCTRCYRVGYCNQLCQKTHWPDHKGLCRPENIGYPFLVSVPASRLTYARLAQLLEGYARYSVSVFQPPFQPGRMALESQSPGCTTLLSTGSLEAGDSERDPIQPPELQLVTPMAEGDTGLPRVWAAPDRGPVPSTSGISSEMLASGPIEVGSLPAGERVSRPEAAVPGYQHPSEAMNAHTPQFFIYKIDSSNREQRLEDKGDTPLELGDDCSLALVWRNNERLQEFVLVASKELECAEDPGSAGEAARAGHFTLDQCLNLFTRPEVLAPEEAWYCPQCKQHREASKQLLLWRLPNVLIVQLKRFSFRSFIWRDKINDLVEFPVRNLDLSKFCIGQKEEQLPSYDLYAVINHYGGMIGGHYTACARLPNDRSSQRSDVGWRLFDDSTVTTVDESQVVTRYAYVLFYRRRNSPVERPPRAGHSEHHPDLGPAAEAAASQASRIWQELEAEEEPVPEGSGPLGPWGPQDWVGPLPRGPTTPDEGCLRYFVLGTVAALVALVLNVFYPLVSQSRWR

Worked cases, answers included:
* C[C@H](CC(F)(F)F)C(=O)N1CCC(O)(CN2CC(C3CC3)OCC2=O)C2(CCCC2)C1 (stereo partly shown) | 50 to 250 µM
* C[C@H](CC1CCCCC1)C(=O)N1CC[C@@](O)(Cn2cc(C(=O)N(C)C)c(-c3ccccc3)cc2=O)C2(CCCC2)C1 | < 0.5 µM
* COc1ccccc1-c1cc(=O)n(CC2(O)CCN(C(=O)C[C@@H](C)c3ccccc3)CC2)cn1 | 5 to 50 µM

Request: Provide value of IC50 for this record tested with USP19 (Homo sapiens (Human), UniProt O94966): O=C(N1CC[C@@](O)(Cn2cnc(-c3ccccc3)cc2=O)C2(CCCC2)C1)N1CCNCC1c1cccs1 (stereo partly shown)
Result: < 0.5 µM

###

Reported pIC50 against USP19 (Homo sapiens (Human)), gathered from multiple publications, appears below.
pIC50: −log10 of the molar value.

- C[C@H](CC(F)(F)F)C(=O)N1CCC(O)(CN2C(=O)CC2c2ccccc2)C2(CCCC2)C1 (stereo partly drawn): 3.60 to 4.30
- C[C@H](CC1CCCCC1)C(=O)N1C[C@H]2CC[C@@H](C1)C2(O)Cn1cnc(-c2ccccc2F)cc1=O (stereo partly drawn): 5.30 to 6.30
- CC(C)C(=O)N1CCC(O)(Cn2cc(C(=O)N(C)C)c(-c3ccccc3)cc2=O)C2(CCCC2)C1 (stereo not drawn): 3.60 to 4.30

Request: For the record O=C(N1CCC(O)(Cn2cnc(-c3ccccc3)cc2=O)C2(CCCC2)C1)N1CCC[C@H]1Cc1cccs1 (stereo partly drawn) , what value of pIC50 is listed for USP19 (Homo sapiens (Human))?
Result: 3.60 to 4.30

Request: Recorded pIC50 for CC(=O)N1CCN(CC2(O)CCN(C(=O)NCc3ccccc3)CC23CCCC3)C(=O)C1 (stereo not drawn) with USP19 (Homo sapiens (Human)), please?
Result: 4.30 to 5.30

Request: Under USP19 (Homo sapiens (Human)): pIC50 value of "O=C(N[C@H](c1ccccc1)C(F)(F)F)N1CC[C@@](O)(Cn2cnc(-c3ccccc3)cc2=O)C2(CCCC2)C1" ?
Result: > 6.30

Request: Query pIC50 on USP19 (Homo sapiens (Human)) for "C[C@H](CC1CCC1)C(=O)N1CC[C@@](O)(Cn2cc(C(=O)N3CCNCC3)c(-c3ccccc3F)cc2=O)C(C)(C)C1"
Result: > 6.30

Request: Form field - read-out: pIC50; system: USP19 (Homo sapiens (Human)); submitted item: Cc1nc2cnccc2c(=O)n1CC1(O)CCN(C(=O)[C@H](C)CC2CCCCC2)CC12CCCC2 (stereo partly drawn)
Result: 5.30 to 6.30

Request: Observed pIC50 on USP19 (Homo sapiens (Human)) for "CC(C)CNc1cc(=O)n(CC2(O)CCN(C(=O)C[C@@H](C)c3ccccc3)CC2)cn1" , please.
Result: 3.60 to 4.30

Request: Param readout = pIC50; param system = USP19 (Homo sapiens (Human)); param query = C[C@H](CC1CC1)C(=O)N1CCC(O)(Cn2cc(C(=O)N(C)C)c(-c3ccccc3)cc2=O)C2(CCCC2)C1 (stereo partly drawn) ; response: value
Result: > 6.30

Request: Which measured pIC50 belongs to "O=C(N1CC[C@@](O)(Cn2cnc(N3CCCC3)cc2=O)C2(CCCC2)C1)N1CCNC[C@H]1c1ccccc1" , tested on USP19 (Homo sapiens (Human))?
Result: > 6.30

Request: Give pIC50 (USP19 (Homo sapiens (Human))) of the following compound: CCOCCC(=O)N1CCC(O)(Cn2cc(C(=O)N(C)C)c(-c3ccccc3)cc2=O)C2(CCCC2)C1 (stereo not drawn)
Result: 4.30 to 5.30

Request: Lab note: need pIC50 for C[C@H](CC1CCCCC1)C(=O)N1CCC(O)(Cn2cc(-c3ncco3)c(-c3ccccc3)cc2=O)C(C)(C)C1 (stereo partly drawn) on USP19 (Homo sapiens (Human)), anyone have it?
Result: 5.30 to 6.30

Request: Short answer please: pIC50, USP19 (Homo sapiens (Human)), entry "Cc1nc(-c2ccccc2)cc(=O)n1CC1(O)CCN(C(=O)C[C@@H](C)c2ccccc2)CC1"
Result: 4.30 to 5.30

Request: Query the reported pIC50 for USP19 (Homo sapiens (Human)); item: "C[C@H](CC(F)(F)F)C(=O)N1CC[C@@](O)(Cn2cnc(-c3ccccc3F)cc2=O)C2(CCCC2)C1"
Result: > 6.30
